target: Torsin-1A (Homo sapiens) (UniProt O14656); experiment: torsin A mutant lysate binding on microarrays – cell lysate, small-molecule microarray, COS7 lysate, 635/667 nm fluorescence, primary screen (AID 1150); conditions: COS7 hTOR1A mutant lysate, 635 nm fluorescence, higher = more signal;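 note: score pools 667 nm emission and signal to noise measuring lysate protein binding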
Sequence (O14656 whole entry, looked up): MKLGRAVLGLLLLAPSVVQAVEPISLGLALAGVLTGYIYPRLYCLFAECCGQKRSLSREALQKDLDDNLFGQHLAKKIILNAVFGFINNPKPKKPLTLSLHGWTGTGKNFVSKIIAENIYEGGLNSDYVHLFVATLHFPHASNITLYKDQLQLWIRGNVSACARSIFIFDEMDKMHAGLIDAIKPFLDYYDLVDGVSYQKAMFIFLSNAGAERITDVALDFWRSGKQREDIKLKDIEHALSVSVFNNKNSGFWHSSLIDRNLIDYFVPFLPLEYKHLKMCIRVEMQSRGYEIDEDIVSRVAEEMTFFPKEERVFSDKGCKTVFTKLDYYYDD
parameter: composite z-score
Reply: number alone, nothing else.

Qu. Requested field: composite z-score. Item: `COCCOC(=O)N1C(=O)[C@@]2(c3cc(C#CCCO)ccc31)[C@H](c1ccc(OCCO)cc1)N1[C@H](c3ccccc3)[C@H](c3ccccc3)OC(=O)[C@H]1[C@@H]2C(N)=O`
Ans. 0.569

Qu. Ok, now `COC(=O)[C@]1(Cc2ccccc2)N=C(c2ccc(OCCCO)cc2)O[C@@H]1c1ccccc1N=[N+]=[N-]`
Ans. 0.0366

Qu. Ok, now `O=C1[C@@]23C=C(Br)[C@H](C[C@@H]2COC3)[C@]12CO2`
Ans. -0.666

Qu. Ok, now `COC(=O)c1c(CC[C@@H](CO)NC(=O)N[C@@H](Cc2ccccc2)Cn2cc(-c3ccccn3)nn2)oc(C(=O)N2CCOCC2)c1C(=O)OC`
Ans. 0.182

---

I'd appreciate it if you could supply z-score values for the items below.
experiment: blockers of DNA damage checkpoint Chk1 activation – imaging, HeLa, hydroxyurea, phospho-Chk1 antibody, percent positive cells, primary screen (AID 1186); settings: hydroxyurea-induced phospho-Chk1 immunofluorescence imaging, higher = more signal
Reply: number alone, nothing else.

Qu. Requested field: z-score. Item: `COc1ccc([Si](C)(C)[C@@H]2[C@@H](CC(=O)N3CCC[C@H]3CO)O[C@]3(C(=O)N(Cc4cccc(I)c4)c4ccccc43)[C@H]2C)cc1`
Ans. -0.198

Qu. Ok, now `CCCCCCc1nc(-c2ccc(-c3ccc(Cl)c(Cl)c3)o2)cc2c1[Si](C(C)C)(C(C)C)O[C@H]2c1ccccc1`
Ans. -0.682

Qu. Ok, now `O=C1[C@H]2C=C(Br)[C@H](C[C@@H]2OCCCCCCO)[C@@]12CO2`
Ans. 0.73

Qu. Ok, now `COc1cc(CO)cc(I)c1O[C@H]1C=C(C(=O)NCCO)C[C@@H](NC[C@@H]2CCCO2)[C@@H]1O`
Ans. -0.399

Qu. Ok, now C=CCC(OC(C)=O)[C@@H]1[C@@H](N(Cc2cc3ccccc3o2)C(=O)Cc2ccc(OC)cc2)c2cc(OCCCO)ccc2N1C(=O)c1ccc2ccccc2c1 (stereo partly specified)
Ans. 0.556

Qu. Ok, now C=CC1c2cc(O)c(OC)cc2CCN1Cc1cccc(OC(F)(F)F)c1 (stereo unspecified)
Ans. 0.08

Qu. Ok, now CN1CCC(CCCO)=CC1c1cccs1 (stereo unspecified)
Ans. 1.02

Qu. Ok, now NC(=O)N1C(=O)C2C(C1=O)C1C=C(CCCO)C2C(C2CC2)N1Cc1cc2c(cc1Br)OCO2 (stereo unspecified)
Ans. 0.207

Qu. Ok, now `COC(=O)[C@@]1(CCC(=O)OC(C)(C)C)N=C(c2ccc(OCCCO)cc2)O[C@H]1c1ccccc1`
Ans. -0.17

Qu. Ok, now `C=CCN1Cc2ccccc2[C@@H]2OC(c3ccc(OCCCO)cc3)=N[C@]2(CCS(=O)(=O)c2ccccc2)C1=O`
Ans. -0.386

Qu. Ok, now `O=C1[C@H]2C=C(I)[C@H](C[C@@H]2OCCCCO)[C@@]12CO2`
Ans. 0.239

Qu. Ok, now `COc1ccc(C(=O)Nc2cccc(CN3C(=O)[C@]4(O[C@H](CCn5cc(CCO)nn5)[C@@H]([Si](C)(C)c5ccc(OC)cc5)[C@@H]4C)c4ccccc43)c2)cc1`
Ans. -0.745

Qu. Ok, now `COc1ccc([Si](C)(C)[C@H]2[C@H](CCn3cc([C@H](O)c4ccccc4)nn3)O[C@@]3(C(=O)N(C)c4ccccc43)[C@@H]2C)cc1`
Ans. -0.179

Qu. Ok, now COc1cc2c(cc1O)C(c1cccs1)N(Cc1ccc([N+](=O)[O-])o1)CC2 (stereo unspecified)
Ans. -0.334

Qu. Ok, now `COCCCNC(=O)[C@@]1(CCS(=O)(=O)c2ccccc2)N=C(c2ccc(OCCCO)cc2)O[C@H]1c1ccccc1N=[N+]=[N-]`
Ans. -0.662

Qu. Ok, now `CC(=O)NCCCC[C@@H]1NC(=O)[C@H]2C[C@@H](C(=O)O)[C@@H](c3ccc(O)cc3)N2C1=O`
Ans. 0.402

Values from PubChem BioAssay
